These data points were gathered from PubChem BioAssay AID1347416.

test: qHTS Validation assay for Inhibitors of Plasmodium falciparum Dd2 growth in vitro; note: nearly all actives have a fitted effect of over 70% in size; settings: P. falciparum Dd2 in RBCs, SYBR Green growth, 72 h; series mostly up to 28.7 µM
The campaign covered roughly 4,100 compounds. About 1,600 (39%) were called active. Inconclusive results (about 25%) are left out. Calls come from the whole dose curve; as a rule, active = well fitted inhibition curve with a large enough effect; inconclusive = small, poorly fitted or top-dose-only effect; inactive = no such curve, though single readings can be large or run the other way. The list shows a part of the results.
Pick one and only one: active, inactive

// known answers, use as guide
>  <molecule>
CNC(=O)[C@@H]1C[C@@H](n2cc(CN(C)C(=O)c3cc(F)ccc3Cl)nn2)CN1

>  <classification>
inactive

$$$$
>  <molecule>
COc1cc(OC)cc(C(=O)N2CCC(c3nc(C4CCOC4)no3)CC2)c1 (stereo not drawn)

>  <classification>
inactive

$$$$

Prompt line: Record lookup: outcome of this test for CC(=O)NCCNC[C@@H]1C=C(C)[C@H](Cc2nnc(-c3ccccc3)o2)C[C@H]1C(C)C ?
Response line: active

Prompt line: Record lookup: outcome of this test for O=C(Nc1ccc(Br)cc1F)c1cc(S(=O)(=O)NC2CCCC2)ccc1F ?
Response line: inactive

Prompt line: Record lookup: outcome of this test for CCC(=O)O[C@]1(C(=O)CCl)[C@@H](C)C[C@H]2[C@@H]3C[C@H](F)C4=CC(=O)C=C[C@]4(C)[C@@]3(F)[C@@H](O)C[C@@]21C ?
Response line: active

Prompt line: Record lookup: outcome of this test for O=C(Nc1ccc(Br)cc1)c1ccc(F)c(S(=O)(=O)NC2CCCCCC2)c1 ?
Response line: active

Prompt line: Record lookup: outcome of this test for O=C(N/N=C(\CC(=O)c1cccs1)C(F)(F)F)c1ccncc1 ?
Response line: inactive
